The reported numbers originate from patent US20240174727A1.

Below, each of the binders is paired with its reported cGMP Assay (EC50, pM) w/Casein value.
# ASSAYED_TARGET: T1, rat NPRA (rat, UniProt P18910 29-1057)
# T1 sequence (looked up): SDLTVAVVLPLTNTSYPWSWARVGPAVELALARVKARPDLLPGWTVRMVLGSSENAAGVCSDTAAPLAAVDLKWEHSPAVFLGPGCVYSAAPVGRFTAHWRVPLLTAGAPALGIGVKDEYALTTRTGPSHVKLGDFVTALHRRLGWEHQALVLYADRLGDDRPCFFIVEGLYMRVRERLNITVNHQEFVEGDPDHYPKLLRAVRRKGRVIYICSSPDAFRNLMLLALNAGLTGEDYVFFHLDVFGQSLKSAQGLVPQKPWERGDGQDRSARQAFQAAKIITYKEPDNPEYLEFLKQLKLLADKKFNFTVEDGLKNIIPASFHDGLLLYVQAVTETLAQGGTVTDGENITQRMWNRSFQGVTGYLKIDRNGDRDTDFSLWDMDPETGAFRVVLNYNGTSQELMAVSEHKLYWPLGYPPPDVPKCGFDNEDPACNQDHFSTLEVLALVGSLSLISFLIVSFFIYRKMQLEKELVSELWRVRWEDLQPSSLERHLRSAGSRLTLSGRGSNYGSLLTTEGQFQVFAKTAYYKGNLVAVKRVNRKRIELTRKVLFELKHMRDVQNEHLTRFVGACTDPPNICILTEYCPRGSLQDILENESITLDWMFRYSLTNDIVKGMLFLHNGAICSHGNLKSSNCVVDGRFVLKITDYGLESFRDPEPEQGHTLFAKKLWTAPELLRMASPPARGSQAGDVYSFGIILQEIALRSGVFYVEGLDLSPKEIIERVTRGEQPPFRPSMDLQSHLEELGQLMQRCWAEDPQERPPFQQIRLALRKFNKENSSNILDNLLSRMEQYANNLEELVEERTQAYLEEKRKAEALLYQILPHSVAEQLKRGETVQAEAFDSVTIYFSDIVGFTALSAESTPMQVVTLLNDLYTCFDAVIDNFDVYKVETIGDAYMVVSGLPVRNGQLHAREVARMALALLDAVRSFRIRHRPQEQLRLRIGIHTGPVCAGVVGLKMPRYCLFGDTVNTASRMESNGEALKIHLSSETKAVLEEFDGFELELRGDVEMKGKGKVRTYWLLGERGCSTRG
# TEST: cell-based or functional assay
Numbered stars: 1 amine (or outer) side, 2 acyl side, 3 side chain; on linkers, the order of the positions; unused ones are H or OH. Bridge positions count the residues as written; N and C are the ends. Square brackets hold non-standard residues; d marks the D form. * marks the point of attachment. thioacetal = thioacetal linkage between two cysteines (intrachain bond at the bracketed Cys); C20 diacid = O=C(O)CCCCCCCCCCCCCCCCCCC(=O)*; γGlu = O=C(O)[C@H](CCC(=O)[*:2])N[*:1]; 4Pal = N[C@@H](Cc1ccncc1)C(=O)O; βAla = NCCC(=O)O
// units = pM; emit number, no label

# count of solved cases: 4
INSERT INTO measurements (binder, assay_endpoint, measurement_unit, readout_number) VALUES
  ('EKXRSSCFGKRIDRIGHQSGLGCPSFRHGGKSSGAPPPS (HOOC-(CH2)18-CO-(γGlu)-EKEKEKG-(AEEA)4-EK-βAla-RSS[CFGKRIDRIGHQSGLGC]PSFRHGGKSSGAPPPS-NH2; thioacetal linkage between the bracketed Cys) [Example 88]', 'cGMP Assay (EC50, pM) w/Casein', 'pM', 11400),
  ('{C20 diacid}-[γGlu]EKEKEKGS[4Pal]RRSSCFGGRIDRIGHQSGLGCPSFRHSGAPPPSE-NH2 (disulfide 15-31) [Example 39]', 'cGMP Assay (EC50, pM) w/Casein', 'pM', 439),
  ('XEKEKEKGSXRRSSCFGGRIDRIGHQSGLGCPSFRHGGPSSGAPPPS (HOOC-(CH2)18-CO-(γGlu)-EKEKEKGS-4Pal-RRSS[CFGGRIDRIGHQSGLGC]PSFRHGGPSSGAPPPS-NH2; disulfide linkage between the bracketed Cys) [Example 1]', 'cGMP Assay (EC50, pM) w/Casein', 'pM', 1810),
  ('XEKEKEKGEKPRSSCFGKRIDRIGHYSGLGCPSFRHGSPSSGAPPPS (HOOC-(CH2)18-CO-(γGlu)-EKEKEKGEKPRSS[CFGKRIDRIGHYSGLGC]PSFRHGSPSSGAPPPS-NH2; thioacetal linkage between the bracketed Cys) [Example 5]', 'cGMP Assay (EC50, pM) w/Casein', 'pM', 1130);

Continue with the binder presented below.
Sample {C20 diacid}-[γGlu]EKEKEKGEK[βAla]RSSCFGGRIDRIGHYSGLGCPSLRHGGPSSGAPPPS-NH2 (bridge 15-31 via thioacetal) [Example 63] — what was its cGMP Assay (EC50, pM) w/Casein?
10600
